- assay.protocol: Permeability in human Caco2/TC7 cells at 5 uM
- Type: ADME, cell-based
- assay.context: caco2/tc7, 5 µM, 5 µM
assay.readout: permeability (×10⁻⁷ cm/s)

NC(=O)c1cc(Cl)c2c(Cl)c(C#CC3CNCCO3)n([C@H]3CCCNC3)c2n1 (stereo in doubt; 29a): 8

a. NC(=O)c1cc(Cl)c2c(Cl)c(C#CC3COCCO3)n([C@H]3CCCNC3)c2n1 (stereo in doubt; 22a)
b. NC(=O)c1cc(Cl)c2c(Cl)c(C#CC3COCCO3)n([C@H]3CCCNC3)c2n1 (stereo in doubt; 22b)
c. NC(=O)c1cc(Cl)c2c(Cl)c(C#CC3CNCCO3)n([C@H]3CCCNC3)c2n1 (stereo in doubt; 29b)
d. NC(=O)c1cc(Cl)c2c(Cl)c(C#CC3CCCO3)n([C@H]3CCCNC3)c2n1 (stereo in doubt; 20b)
Rank the items in ascending order with respect to permeability. Put the labels in the order asked and list them.
c, b, d, a

====

- assay.protocol: Clearance in rat at 3 mg/kg, iv administered as single dose
- Assay type: ADME, organism-based
- assay.context: in vivo
assay.readout: clearance (mL/min/kg)

COCCC#Cc1c(Cl)c2c(Cl)cc(C(N)=O)nc2n1[C@H]1CCCNC1: 113

A. NC(=O)c1cc(Cl)c2c(Cl)c(C#CC3CCCO3)n([C@H]3CCCNC3)c2n1 (stereo in doubt; 20b)
B. NC(=O)c1cc(Cl)c2c(Cl)c(C#CC3CCOCC3)n([C@H]3CCCNC3)c2n1
When the recorded clearance values are compared, which is smaller: that of A or that of B ? Reply briefly: the label of your chosen item.
B

====

IC50, Serine/threonine-protein kinase pim-1 (Homo sapiens, UniProt P11309): measured values
assay.readout: IC50 (nM)

CN1CC(C#Cc2c(Cl)c3c(Cl)cc(C(N)=O)nc3n2[C@H]2CCCNC2)CC1=O (some centres not stated): 3.1

1. NC(=O)c1cc(Cl)c2c(Cl)c(C#CC3CCOCC3)n([C@H]3CCCNC3)c2n1
2. NC(=O)c1cc(Cl)c2c(Cl)c(C#CCCO)n([C@H]3CCCNC3)c2n1
In the pair 1 and 2 , the larger recorded IC50 belongs to which? Reply briefly: the label of your chosen item.
1

====

- assay.protocol: Drug uptake in tumor of mouse xenografted with human KG1 cells at 25 mg/kg, po administered as single dose and measured at 24 hrs post dose
- Assay type: ADME, organism-based, Neoplasm
- assay.context: read-out: Drug uptake
assay.readout: concentration at 24 h (µM)
API: value field is a number in µM; no unit string.

Look up and state reported concentration at 24 h for COCCC#Cc1c(Cl)c2c(Cl)cc(C(N)=O)nc2n1[C@H]1CCCNC1
7.9

====

- target.desc: Serine/threonine-protein kinase pim-2 (Homo sapiens, UniProt Q9P1W9)
assay.readout: IC50 (nM)

In the examples that follow, each entry is paired with its recorded IC50.
NC(=O)c1cc(Cl)c2c(Cl)c(C#CC3CC3)n([C@H]3CCCNC3)c2n1: 9
NC(=O)c1cc(Cl)c2c(Cl)c(C#CC3COCCO3)n([C@H]3CCCNC3)c2n1 (stereo in doubt; 22b): 6
CC(O)CC#Cc1c(Cl)c2c(Cl)cc(C(N)=O)nc2n1[C@H]1CCCNC1 (stereo partly drawn): 6.1
NC(=O)c1cc(Cl)c2c(Cl)c(C#CC3CNCCO3)n([C@H]3CCCNC3)c2n1 (stereo in doubt; 29b): 7.6
CC1(C#Cc2c(Cl)c3c(Cl)cc(C(N)=O)nc3n2[C@H]2CCCNC2)COC1: 5.7

A. NC(=O)c1cc(Cl)c2c(Cl)c(C#CCCO)n([C@H]3CCCNC3)c2n1
B. CC(C)(CC#Cc1c(Cl)c2c(Cl)cc(C(N)=O)nc2n1[C@H]1CCCNC1)C(N)=O
When the recorded IC50 values are compared, which is smaller: that of A or that of B ? Reply briefly: the label of your chosen item.
A
(A: 2.7 nM, B: 21 nM)

The measured values listed here are drawn from ChEMBL document CHEMBL4371067.
